# Test system: NCI-H23 lung
# Assay Text: NCI-60 one-dose screen, 48 h (100 = growth as untreated, 0 = no growth, -100 = all killed)
# Conditions: 100 µM
This is part of a sample that, as a whole, favours compounds with a hit. Of some 83,000 tested, about 20% had one in any assay.
Answer each item with its documented growth.
Output spec: scalar in %, unitless text.

# growth lookup, item O=C(Nc1cccc(Br)c1)Oc1cccc2cccnc12
-21

# query: growth of entry CN(C)C(=O)c1ccc(SC(=S)NCc2ccccc2)cc1
5.21

// lookup growth for COc1ccc(-c2cscc2N)cc1
74.2

Endpoint output: growth of O=C(O)c1c(Cl)c(Cl)c(Cl)c(Cl)c1-c1c2cc(I)c(=O)c(I)c-2oc2c(I)c(O)c(I)cc12 . Value?
-60

====

# System: DU-145 prostate
# Assay Text: NCI-60 one-dose screen, 48 h (100 = growth as untreated, 0 = no growth, -100 = all killed)
# Conditions: 10 µM unless noted
# Method: Cells are grown in 96 well plates and exposed to the test compound for 48 hours. Compounds are tested at a single concentration, which is 10^-5 M for most compounds. The reported endpoint is percent growth (GI% or GIPRCNT), where numbers from 0 - 100% represent growth inhibition, and numbers from -100% - 0 represent cell death. For example, a value of 40 represents 60% growth inhibition. A value of 0 means no net growth occurred over the course of the experiment. […]
Compounds without any hit were thinned out: in the full panel of roughly 83,000, 20% have a hit.
Readout Name: growth (%)
Unit % implied. Number only.

# query: growth | item O=C1OCc2cccc3cccc1c23 | system: DU-145 prostate
107

Quick check: growth on DU-145 prostate, item O=C1C=CC(=O)N1C1c2ccccc2-c2ccccc21 ?
103

Record lookup: for DU-145 prostate, what growth belongs to CCCCCCC(C)c1ccccc1O (stereo not given) (tested in a mixture with another compound) ?
116

Can you look up growth on DU-145 prostate for S=C(N/N=C/c1ccccn1)Nc1ccccn1 ?
28.4

What is its growth for DU-145 prostate? Entry: O=C1c2ccccc2C(=O)N1c1ccccc1
109

Identify the measured growth of COC(=O)[C@@]12OC[C@]34[C@H]([C@@H](O)[C@@H]1O)[C@@]1(C)[C@H](O)C(=O)C=C(C)[C@@H]1C[C@H]3OC(=O)C(OC(C)=O)[C@@H]24 (stereo not given in full) for DU-145 prostate.
-64.4

Give the reported growth for N#CSCc1c(Cl)cccc1Cl (system: DU-145 prostate).
21

What value of growth on DU-145 prostate does CC1OC(OC2C(OC3CCC4(C)C(CCC5(C)C4CC=C4C6CC(C)(C)CCC6(CO)C(O)CC45C)C3(C)C)OC(C(=O)O)C(OC3OC(COC4OC(CO)C(O)C(O)C4O)C(O)C(O)C3O)C2O)C(O)C(O)C1O (stereo not given) have?
7.81

Request body: readout growth, system DU-145 prostate, query CCN(CC)CCOc1ccc(-c2nc3cc(Cl)ccc3s2)cc1 . Return the value.
12

Find the measured growth: item CCCCCCCCCCCCCCCCN(CC)CC , target or system DU-145 prostate.
-48.4

====

Assign growth to each entry below.
# Test system: NCI/ADR-RES ovarian
# Assay Text: NCI-60 one-dose screen, 48 h (100 = growth as untreated, 0 = no growth, -100 = all killed)
# Conditions: 10 µM unless noted
This is part of a sample that, as a whole, favours compounds with a hit. Of some 83,000 tested, about 20% had one in any assay.
# number only, unit % dropped from output

Need growth, item NC(=O)/C=C/C(=O)c1c(Cl)cccc1Cl
-59.4

// query growth value for entry S=C(NCCNC(=S)[S][Sn]([c]1ccccc1)([c]1ccccc1)[c]1ccccc1)[S][Sn]([c]1ccccc1)([c]1ccccc1)[c]1ccccc1
-64.5

Fill in the blank: the reported growth of Cc1ccc2nc(C[n+]3ccc4ccccc4c3)ccc2c1 is ____.
104

Can you share its growth? I mean this molecule: CCCCCCCCCCCCCCNCc1ccccc1
79.6

Could you tell me which growth is on file for CC1SC(=S)N(c2ccc(Cl)cc2)C1=O (stereo unspecified) ?
103

Report growth for CN=C(N)N/N=C(\C)c1ccc2c(c1)Cc1cc(/C(C)=N/NC(N)=NC)ccc1-2 please.
64.8
